Assignment: determine reported metabolised at 0.25 h for the given compounds.
# protocol-text: Metabolic stability in human liver microsomes assessed as compound metabolized after 15 mins
# Format: ADME, Microsome
# applied-conditions: read-out: Drug metabolism
Answers are plain numbers, in %.

test-smiles | units-of-measure | numeric-result
O=c1n(Cc2nc3nc(Cl)ccc3n2CCCCF)c2cnccc2n1C1CC1 | % | 0
N#CCCCn1c(Cn2c(=O)n(-c3ccncc3)c3ccncc32)cc2cc(Cl)ccc21 | % | 23
CS(=O)(=O)CCCn1c(Cn2c(=O)n(CC3CC3)c3ccncc32)cc2cc(Cl)ccc21 | % | 98
CC1(n2c(=O)n(Cc3cc4cc(Cl)ccc4n3CCCS(C)(=O)=O)c3cnccc32)CC1 | % | 29

Per the records, this compound ( O=c1n(Cc2cc3cnccc3n2CCCCF)c2cnccc2n1C1CC1 ) has metabolised at 0.25 h equal to 15

All figures here come from ChEMBL document CHEMBL4619758.
